Test system: SK-OV-3
EXPERIMENT: NCI tumour cell line growth inhibition, 48 h
Activity calls are given as the source filed them. No stated cut-off is given here; in the data, active = GI50 up to about 1.1 µM and inactive = higher.
ENDPOINT LABEL: GI50

Solved cases below.
COMPOUND	ASSAY TARGET	GI50
COc1cc(C(=O)C/C(CCC(=O)Nc2ccc(Cl)cc2Cl)=N/Nc2nnc(C)n2N)ccc1O	SK-OV-3	> 100 µM (inactive)
Cc1cc(=O)n(-c2ccccc2C)c(C)n1	SK-OV-3	> 100 µM (inactive)
COc1cc(OCc2nc3ccccc3n3cccc23)cc(OC)c1OC	SK-OV-3	40.6 µM (inactive)

Request: Let me know recorded GI50 for C=CC(Br)(CBr)CCC1OC1(C)C (configuration not stated) , thanks.
Response: 24.7 µM (inactive)

Request: Let me know recorded GI50 for "Cc1ccc(Nc2[nH]c(=O)[nH]c(=O)c2C)cc1Cl" , thanks.
Response: > 100 µM (inactive)

Request: Let me know recorded GI50 for "O=C(Nc1cc(Cl)ccc1Cl)c1cc2cccc(Cl)c2oc1=O" , thanks.
Response: > 100 µM (inactive)

Request: Let me know recorded GI50 for "O=c1c2nc[nH]c2n(-c2ccccc2)c(=S)n1-c1ccccc1" , thanks.
Response: > 100 µM (inactive)

Request: Let me know recorded GI50 for c1ccc2cc(C3NCCc4nc[nH]c43)ccc2c1 (configuration not stated) , thanks.
Response: > 100 µM (inactive)
